Tested on: Saccharomyces cerevisiae lifespan shortening, growth inhibition
Experiment: yeast lifespan shortening compounds, dose response (AID 849);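 note: yeast growth read as optical density after two days at 30 degrees C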
Active and inactive are the calls of the source. The rule behind the calls is not given here.
metric.name: IC50

Incoming: What value of IC50 has been reported for the following compound? `c1ccc(-c2nc3c(ccc4ccccc43)[nH]2)nc1`
Outgoing: 30.7 µM

Incoming: What value of IC50 has been reported for the following compound? CCc1ccc2c(c1)C1(NN=C(c3ccc(C)cc3)S1)C(=O)N2 (stereo not drawn)
Outgoing: 23.8 µM

Incoming: What value of IC50 has been reported for the following compound? `O=c1oc2ccccc2cc1-c1cn2cccnc2n1`
Outgoing: > 100 µM (inactive)

Incoming: What value of IC50 has been reported for the following compound? `O=[N+]([O-])c1cc(/C=N/O)ccc1Sc1ccccc1`
Outgoing: > 100 µM (inactive)

Incoming: What value of IC50 has been reported for the following compound? `CC(C)(C)c1ccc(NC(=O)COC(=O)c2ccc([N+](=O)[O-])s2)cc1`
Outgoing: 34 µM

Incoming: What value of IC50 has been reported for the following compound? `Cc1nn(-c2ccccc2)c2sc(-c3n[nH]c(=S)o3)cc12`
Outgoing: > 100 µM (inactive)

Incoming: What value of IC50 has been reported for the following compound? `Cc1ccc(N2CCOCC2)c2c1C(=O)c1ccccc1C2=O`
Outgoing: 9.55 µM

Incoming: What value of IC50 has been reported for the following compound? `Cc1cc(O)c(/C=N/Nc2ccccc2)c(=O)o1`
Outgoing: 25.2 µM

Incoming: What value of IC50 has been reported for the following compound? `CC(C)CNC(=O)CN(C1CCCCC1)S(C)(=O)=O`
Outgoing: > 100 µM (inactive)

Incoming: What value of IC50 has been reported for the following compound? `Cc1ccc(/C=C2\C(=O)NC(=S)N(c3ccccc3F)C2=O)s1`
Outgoing: 13.9 µM

Incoming: What value of IC50 has been reported for the following compound? `Nc1nsc2ccccc12`
Outgoing: 24.3 µM

Incoming: What value of IC50 has been reported for the following compound? `O=[N+]([O-])c1ccc(CN2CCCCCC2)s1`
Outgoing: > 100 µM (inactive)

Incoming: What value of IC50 has been reported for the following compound? CC1Cc2ccccc2N1C(=O)CSC1=NCCS1 (stereo not drawn)
Outgoing: > 100 µM (inactive)

Incoming: What value of IC50 has been reported for the following compound? O=C1NC(c2ccccn2)Nc2sc3c(c21)CCC3 (stereo not drawn)
Outgoing: > 100 µM (inactive)

Incoming: What value of IC50 has been reported for the following compound? `COc1ccc(-n2c(Cc3cccn3C)nnc2SCC(=O)N2CCCC2)cc1`
Outgoing: > 100 µM (inactive)

Incoming: What value of IC50 has been reported for the following compound? `Oc1cccc2ccc(/C=C/c3cccs3)nc12`
Outgoing: 37.5 µM

Incoming: What value of IC50 has been reported for the following compound? `O=c1[nH]c(Nc2ccccc2)cc2ccccc12`
Outgoing: > 100 µM (inactive)

Incoming: What value of IC50 has been reported for the following compound? `CCCCOC(=O)n1c(=S)oc2cc(Cl)ccc21`
Outgoing: 16.5 µM

Incoming: What value of IC50 has been reported for the following compound? `C/C(=N\Nc1nc2c(s1)CCCC2)c1ccccc1`
Outgoing: 31.9 µM

Incoming: What value of IC50 has been reported for the following compound? `O=c1oc2ccccc2c(O)c1/C=C1\C=Nc2ccccc21`
Outgoing: 18 µM

Incoming: What value of IC50 has been reported for the following compound? `Cc1ccc2nc(-c3ccc(NS(C)(=O)=O)cc3)cc(-c3ccccc3)c2c1`
Outgoing: 43.2 µM

Incoming: What value of IC50 has been reported for the following compound? O=C1C2C3C=CC(CO)(O3)C2C(=O)N1c1ccccc1-c1ccccc1 (stereo not drawn)
Outgoing: > 100 µM (inactive)

Incoming: What value of IC50 has been reported for the following compound? `Cc1cccc(OCCn2cc(/C=N/NC(=O)c3ccncc3)c3ccccc32)c1`
Outgoing: > 100 µM (inactive)

Incoming: What value of IC50 has been reported for the following compound? `Clc1ccc(N=c2ssnc2Cl)cc1`
Outgoing: 25.6 µM

Incoming: What value of IC50 has been reported for the following compound? `Cc1nc(Nc2ccc(Cl)c(Cl)c2)sc1C(=O)Nc1ccccc1`
Outgoing: > 100 µM (inactive)

Incoming: What value of IC50 has been reported for the following compound? CCC(C)N1CC23C=CC(O2)C(C(=O)OC)C3C1=O (stereo not drawn)
Outgoing: > 100 µM (inactive)

Incoming: What value of IC50 has been reported for the following compound? `COc1ccc(OC)c(-c2c3cc(O)c(=O)cc-3oc3cc(O)c(O)cc23)c1`
Outgoing: 30.1 µM

Incoming: What value of IC50 has been reported for the following compound? `CCSc1nnc(NC(=O)c2ccccn2)s1`
Outgoing: 9.84 µM

Incoming: What value of IC50 has been reported for the following compound? `Cn1c(SCC(=O)Nc2ccccc2)nc(O)cc1=O`
Outgoing: 50.1 µM

Incoming: What value of IC50 has been reported for the following compound? `CCOC(=O)c1sc(=S)n(-c2cc(F)ccc2F)c1N`
Outgoing: > 100 µM (inactive)

Incoming: What value of IC50 has been reported for the following compound? `O=C(CC(O)(C(F)(F)F)C(F)(F)F)Nc1ccc(Cl)c(Cl)c1`
Outgoing: 12 µM

Incoming: What value of IC50 has been reported for the following compound? `COc1cccc2sc(Nc3nc(-c4ccccn4)cs3)nc12`
Outgoing: 20.4 µM

Incoming: What value of IC50 has been reported for the following compound? `O=C(Oc1c(Cl)cc(Cl)c2cccnc12)c1cccc([N+](=O)[O-])c1`
Outgoing: 2.95 µM

Incoming: What value of IC50 has been reported for the following compound? `Cn1c(-c2ccco2)nc2cc3ccccc3cc21`
Outgoing: 39.7 µM

Incoming: What value of IC50 has been reported for the following compound? `COc1ccccc1OCCN1CSC(=S)N(C)C1`
Outgoing: 11.8 µM

Incoming: What value of IC50 has been reported for the following compound? CCCC1COC(Cn2cncn2)(c2ccc(C)cc2)O1 (stereo not drawn)
Outgoing: 3.94 µM

Incoming: What value of IC50 has been reported for the following compound? `CCCCN(CCCC)C(=S)N/N=C/c1c(C)[nH]n(-c2ccccc2)c1=O`
Outgoing: 38.9 µM

Incoming: What value of IC50 has been reported for the following compound? `Clc1ccc(N/N=C/c2ccncc2)cc1Cl`
Outgoing: > 100 µM (inactive)

Incoming: What value of IC50 has been reported for the following compound? Cc1ccc(N2NC(C)(c3cccs3)NC2=S)cc1 (stereo not drawn)
Outgoing: > 100 µM (inactive)

Incoming: What value of IC50 has been reported for the following compound? Cc1ccc(Oc2nc(CN3CCOCC3)nc3sc4c(c23)CCC(C)C4)cc1C (stereo not drawn)
Outgoing: 26.1 µM

Incoming: What value of IC50 has been reported for the following compound? COc1ccc(-c2nnc3sc(C(C)N4C(=O)c5ccccc5C4=O)nn23)cc1 (stereo not drawn)
Outgoing: > 100 µM (inactive)

Incoming: What value of IC50 has been reported for the following compound? `CCn1c(=O)c(C(=O)Nc2nc3ccccc3[nH]2)c(O)c2ccccc21`
Outgoing: > 100 µM (inactive)

Incoming: What value of IC50 has been reported for the following compound? `Cc1ccc(C(=O)Oc2ccc(Cl)c3cccnc23)cc1[N+](=O)[O-]`
Outgoing: 47.4 µM

Incoming: What value of IC50 has been reported for the following compound? CC1/C(=N/O)CC(c2ccccc2)N(C)C1c1ccccc1 (stereo not drawn)
Outgoing: > 100 µM (inactive)

Incoming: What value of IC50 has been reported for the following compound? OC(CN1CCN(c2ccccn2)CC1)Cn1c2ccc(Cl)cc2c2cc(Cl)ccc21 (stereo not drawn)
Outgoing: 47.5 µM

Incoming: What value of IC50 has been reported for the following compound? `O=C(Oc1ccc(Cl)c2cccnc12)c1ccco1`
Outgoing: 14.6 µM

Incoming: What value of IC50 has been reported for the following compound? `O=C(c1c[nH]c(C(=O)C(Cl)(Cl)Cl)c1)c1ccccc1Cl`
Outgoing: > 100 µM (inactive)

Incoming: What value of IC50 has been reported for the following compound? `CC1=C/C(=N\OS(=O)(=O)c2ccccc2)C(C)=CC1=O`
Outgoing: 1.54 µM
